Origin of the recorded values: PubChem BioAssay (NCI)

# Test system: HOP-92 NSCLC
# assay summary: NCI tumour cell line growth inhibition, 48 h
measured parameter: TGI (µM)

compound="CC(C)(CN1CCCCC1)C(=O)CC(SCCS(=O)(=O)O)c1ccc(Cl)c(Cl)c1 (centres undefined)" qualifying_sign== reported_value=6.18
compound="COc1cc(SC)ccc1C(=O)N1CCCC(C)C1 (centres undefined)" qualifying_sign=> reported_value=100
compound=Nc1nc(Cl)cc(NCCCCCCCCCCNc2cc(Cl)nc(N)n2)n1 qualifying_sign=> reported_value=100
compound=C/C(=N\n1c(N)c(C#N)c(-c2ccc(Cl)cc2)c(C#N)c1=O)c1cccnc1 qualifying_sign== reported_value=34.8

----------
# Lookup of reported TGI keyed by entry
# Tested on: BT-549 breast
# assay summary: NCI tumour cell line growth inhibition, 48 h
measured parameter: TGI

molecule="C=C1C[C@]23CC[C@@H]4C(CO)(CO)CC(=O)C[C@]4(C)[C@@H]2C(O)C[C@H]1C3 (stereo partly specified)" tested_target="BT-549 breast" measured_parameter=TGI reported_value="> 100 µM"
molecule=COCCOC(=O)CCn1cc(F)c(=O)[nH]c1=O tested_target="BT-549 breast" measured_parameter=TGI reported_value="> 150 µg/mL"
molecule=O=C(/C=C/c1cccs1)Nc1ncc(Cc2ccccc2F)s1 tested_target="BT-549 breast" measured_parameter=TGI reported_value="> 100 µM"
molecule=COc1cc2c(cc1OCc1ccccc1)NC(=O)[C@@H]1C[C@@H](O)CN1C2=O tested_target="BT-549 breast" measured_parameter=TGI reported_value="> 100 µM"
molecule="CCCS(=O)OC1C(C2COC(C)(C)O2)OC2OC(C)(C)OC21 (stereo unspecified)" tested_target="BT-549 breast" measured_parameter=TGI reported_value="24.5 µM"
molecule="NC(=NC1C2CC3CC(C2)CC1C3)Nc1ccc(I)cc1 (stereo unspecified)" tested_target="BT-549 breast" measured_parameter=TGI reported_value="12.8 µM"
molecule=CCOC(=O)c1c(C)n(CCN2CCN(C)CC2)c2ccc(OC)cc12 tested_target="BT-549 breast" measured_parameter=TGI reported_value="> 100 µM"
molecule=CCn1c2ccccc2c2cc(NC(=O)c3c(C)[nH]c(=O)[nH]c3=S)ccc21 tested_target="BT-549 breast" measured_parameter=TGI reported_value="> 100 µM"
molecule=Cc1nc(-c2ccc(Cl)cc2)cn2c1nc1ccccc12 tested_target="BT-549 breast" measured_parameter=TGI reported_value="> 100 µM"
molecule=NC(=O)c1ccc(NC(=O)c2oc3ccccc3c2-c2cnn(-c3ccccc3)c2)cc1 tested_target="BT-549 breast" measured_parameter=TGI reported_value="> 100 µM"
molecule="C[N+](C)(C)c1nc(N)nc2c1ncn2C1OC(CO)C(O)C1O (stereo unspecified)" tested_target="BT-549 breast" measured_parameter=TGI reported_value="> 100 µM"
molecule=C=C(C)[C@@H]1CC[C@]2(C#N)CC[C@]3(C)[C@H](CC[C@@H]4[C@@]5(C)CCCNC(C)(C)[C@@H]5CC[C@]43C)[C@@H]12 tested_target="BT-549 breast" measured_parameter=TGI reported_value="3.42 µM"
molecule=Cc1cc(=O)[nH]c(S(=O)(=O)NC(=S)Nc2ccc(Br)cc2)n1 tested_target="BT-549 breast" measured_parameter=TGI reported_value="> 100 µM"
molecule=O=C(Nc1ccc(-c2nc3ccc(NC(=O)c4ccc(Cl)cc4)cc3[nH]2)cc1)c1ccc(Cl)cc1 tested_target="BT-549 breast" measured_parameter=TGI reported_value="20.7 µM"
molecule=Fc1cc(Nc2ccc3c(OCCCN4CCOCC4)cccc3n2)ccc1Cl tested_target="BT-549 breast" measured_parameter=TGI reported_value="18.7 µM"
molecule=CCN(CC)c1ccc(/C=N\NC(=O)c2cccc(Nc3ccnc(C(F)(F)F)c3)c2)c(O)c1 tested_target="BT-549 breast" measured_parameter=TGI reported_value="> 65.1 µM"
molecule="C1CCN2CC34CC(CC5CCCN(C6CCCC3N6)C54)C2C1 (stereo unspecified)" tested_target="BT-549 breast" measured_parameter=TGI reported_value="> 100 µM"
molecule="COC(=O)C1CC(C=O)=C(SC)N1 (stereo unspecified)" tested_target="BT-549 breast" measured_parameter=TGI reported_value="> 50 µM"
molecule=COc1cc(C(=O)c2c(-c3ccccc3)oc3ccccc23)cc(OC)c1O tested_target="BT-549 breast" measured_parameter=TGI reported_value="7.82 µM"
molecule=CN(NC(=O)/C(=C/C=C/c1ccccc1)NC(=O)c1ccccc1)C1=C(Cl)C(=O)[N+](c2ccccc2)=CC1 tested_target="BT-549 breast" measured_parameter=TGI reported_value="49.6 µM"
molecule=O=C(N/N=C\c1cc(Cl)ccc1O)N/N=C/c1cc(Cl)ccc1O tested_target="BT-549 breast" measured_parameter=TGI reported_value="> 100 µM"
molecule="C=C(Cl)C(=C)CCC(Cl)C(C)(C)Cl (stereo unspecified)" tested_target="BT-549 breast" measured_parameter=TGI reported_value="> 100 µM"
molecule=CC(C)=CCC[C@](C)(O)[C@H]1CC[C@]2(C)[C@@H]1CC[C@@H]1[C@@]3(C)CC[C@H](OC(=O)CCC(=O)O)C(C)(C)[C@@H]3CC[C@]12C tested_target="BT-549 breast" measured_parameter=TGI reported_value="> 100 µM"
molecule=Cc1cc(C(C)(C)C)c(OCCCN2CCOCC2)c(C(C)(C)C)c1 tested_target="BT-549 breast" measured_parameter=TGI reported_value="31.9 µM"
molecule=NC(=S)NS(=O)(=O)c1ccc(Cl)cc1Cl tested_target="BT-549 breast" measured_parameter=TGI reported_value="> 100 µM"
molecule=CCSc1nn(-c2c3ccccc3nc3ccccc23)c(=S)s1 tested_target="BT-549 breast" measured_parameter=TGI reported_value="> 100 µM"
